System: Ipomoea hederacea (IPOHE)
measurement notes: Post-emergence Test, Ipomoea hederacea (IPOHE)
Assay type: in vivo
Design: key: 5=81-100%, 4=61-80%, 3=41-60%, 2=21-40%, 1=0-20% damage
test conditions: 1000 g/ha, evaluated after 13 days
Provide the reported percentage damage caused to the plant, IPOHE (five-point scale) of each item.

Data request: Under Ipomoea hederacea (IPOHE): percentage damage caused to the plant, IPOHE (five-point scale) value of CCOC(=O)c1c(-c2ccc(Cl)c(Cl)c2)n(CC)c(Cn2cncn2)cc1=O ?
Data returned: 1 (1=0-20%)

Data request: // lookup percentage damage caused to the plant, IPOHE (five-point scale) | system=Ipomoea hederacea (IPOHE) | key= COCCn1c(Cn2ccc(Cl)n2)cc(=O)c(C(=O)O)c1-c1ccc(Cl)c(Cl)c1
Data returned: 1 (1=0-20%)

Data request: // lookup percentage damage caused to the plant, IPOHE (five-point scale) | system=Ipomoea hederacea (IPOHE) | key= CCn1c(Cn2nc(C(F)(F)F)c3c2CCOC3)cc(=O)c(C(=O)O)c1-c1ccc(Cl)c(Cl)c1
Data returned: 2 (2=21-40%)

Data request: Recall the recorded percentage damage caused to the plant, IPOHE (five-point scale) for Cn1c(Cn2ccc(Cl)n2)cc(=O)c(C(=O)O)c1-c1ccc(Cl)c(Cl)c1 with Ipomoea hederacea (IPOHE) and state it.
Data returned: 4 (4=61-80%)

* * *

Tested on: Ipomoea hederacea (IPOHE)
measurement notes: Post-emergence Test, Ipomoea hederacea (IPOHE)
Type: in vivo
Set-up: key: 5=81-100%, 4=61-80%, 3=41-60%, 2=21-40%, 1=0-20% damage
test conditions: 1000 g/ha, evaluated after 13 days
parameter measured: percentage damage caused to the plant, IPOHE (five-point scale)

Data request: Any idea what percentage damage caused to the plant, IPOHE (five-point scale) came out for CCn1c(Cn2nc(C(F)(F)F)cc2OC(F)F)cc(=O)c(C(=O)O)c1-c1ccc(Cl)c(Cl)c1 on Ipomoea hederacea (IPOHE)?
Data returned: 4 (4=61-80%)

Data request: // fetch Ipomoea hederacea (IPOHE) percentage damage caused to the plant, IPOHE (five-point scale) for CCOCc1ccn(Cc2cc(=O)c(C(=O)O)c(-c3ccc(Cl)c(Cl)c3)n2CC)n1
Data returned: 2 (2=21-40%)

Data request: Param readout = percentage damage caused to the plant, IPOHE (five-point scale); param system = Ipomoea hederacea (IPOHE); param query = CCn1c(Cn2cnc(C(=O)OC)c2)cc(=O)c(C(=O)O)c1-c1ccc(Cl)c(Cl)c1 ; response: value
Data returned: 0

Data request: Give percentage damage caused to the plant, IPOHE (five-point scale) (Ipomoea hederacea (IPOHE)) of the following compound: CCn1c(Cn2cc(Cl)c(C)n2)cc(=O)c(C(=O)O)c1-c1ccc(Cl)c(Cl)c1
Data returned: 3 (3=41-60%)

* * *

System: Zea mays (ZEAMX)
measurement notes: Post-emergence Test, Zea mays (ZEAMX)
Format: in vivo
Parameters: key: 5=81-100%, 4=61-80%, 3=41-60%, 2=21-40%, 1=0-20% damage
test conditions: 250 g/Ha, evaluated after 13 days
parameter measured: percentage damage caused to the plant, ZEAMX (five-point scale)

Data request: API: value(readout= percentage damage caused to the plant, ZEAMX (five-point scale), system= Zea mays (ZEAMX), query= CCn1c(Cn2nc(C(F)(F)F)cc2OC(F)F)cc(=O)c(C(=O)O)c1-c1ccc(Cl)c(Cl)c1 )
Data returned: 1 (1=0-20%)

Data request: Requested read-out percentage damage caused to the plant, ZEAMX (five-point scale), target or system Zea mays (ZEAMX), entry CCn1c(Cn2nc(C(F)F)c3c2CCOC3)cc(=O)c(C(=O)O)c1-c1ccc(Cl)c(Cl)c1
Data returned: 1 (1=0-20%)

Data request: Lab note: need percentage damage caused to the plant, ZEAMX (five-point scale) with Zea mays (ZEAMX) for entry CCn1c(Cn2cncc2Cl)cc(=O)c(C(=O)O)c1-c1ccc(Cl)c(Cl)c1 , please look it up.
Data returned: 1 (1=0-20%)
